Catalogue of protein stability index readings, one per entry.
B1: LARP4 (parent)
chain: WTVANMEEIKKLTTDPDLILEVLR

variants of: B1; experiment: protein stability index of a GFP-peptide fusion (GPS, HEK-293T) (PSI 1-6); higher = more stable; settings: c terminus: a fixed tail appended;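 note: lentivirally expressed fusions sorted by FACS into six bins by GFP to DsRed ratio, PSI derived from sequencing read proportions per bin multiplied by bin number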
quantity measured: protein stability index

>>> measured_number("M6R")
2.47
>>> measured_number("W1A")
1.9
>>> measured_number("K10P")
2
>>> measured_number("T2M")
1.48
>>> measured_number("V3D")
3.05
>>> measured_number("A4G")
2.06
>>> measured_number("A4Y")
1.5
>>> measured_number("E8N")
2.03
>>> measured_number("E21S")
1.66
>>> measured_number("M6Q")
2.25
>>> measured_number("T14P")
2.01
>>> measured_number("K10M")
2.56
>>> measured_number("L18H")
2.6
>>> measured_number("T2A")
1.42
>>> measured_number("D17Y")
1.53
>>> measured_number("I9W")
2.21
>>> measured_number("T14R")
2.14
>>> measured_number("N5K")
2.05
>>> measured_number("K11A")
1.7
>>> measured_number("I19S")
3.09
>>> measured_number("A4F")
1.69
>>> measured_number("W1T")
2.32
